tested on: AS120; test: qHTS profiling for inhibitors of Plasmodium falciparum proliferation (AID 504749); further: nearly all actives have a fitted effect of over 60% in size; details: P. falciparum in erythrocytes, SYBR Green DNA, 72 h; series mostly up to 28.7 µM
Inconclusive results are not listed. The source made the active and inactive calls. The call rests on the fitted dose curve; in most records, active means well fitted inhibition curve with a large enough effect; inconclusive means small, poorly fitted or top-dose-only effect; inactive means flat fitted curve, though single readings scatter.
Labels: yes (1) (active), no (0) (inactive)

> print(dat)
                                    compound  labelclass
 1         CCCCCCCCCCCCCC[N+](C)(C)Cc1ccccc1     yes (1)
 2                   CC(C)Cc1ccc(CC(=O)O)cc1      no (0)
 3  CCOC(=O)[C@H](CCc1ccccc1)N[C@@H](C)C(=O)N1[C@H](C(=O)O)C[C@H]2CCCC[C@@H]21      no (0)
 4                O=C1C(O)=C(O)C(=O)C(O)=C1O      no (0)
 5  COc1ccccc1N1CCN(CCCCNC(=O)c2ccc(-c3ccc(C(C)=O)cc3)cc2)CC1      no (0)
 6                         CCCCCCCCCCCCCCCCO      no (0)
 7  COc1ccc(C(Cl)=C(c2ccc(OC)cc2)c2ccc(OC)cc2)cc1     yes (1)
 8  O=C(O)C(Cc1cc(I)c(O)c(I)c1)c1ccccc1 (stereo not given)      no (0)
 9  CN1CCC[C@@H]1CCO[C@](C)(c1ccccc1)c1ccc(Cl)cc1      no (0)
10  O=C(CN1CCN(Cc2ccc3c(c2)OCO3)CC1)N1c2ccccc2Sc2ccccc21     yes (1)
11  O=C1C(CCS(=O)c2ccccc2)C(=O)N(c2ccccc2)N1c1ccccc1 (stereo not given)      no (0)
12          CCN(CC)CCOC(=O)C1(c2ccccc2)CCCC1      no (0)
13  Oc1c(Cl)cc(Cl)c(Cl)c1Cc1c(O)c(Cl)cc(Cl)c1Cl     yes (1)
14  NC(=O)n1c(O)c(C(=O)c2cccs2)c2cc(Cl)ccc21      no (0)
15  NC(=O)C1(N2CCCCC2)CCN(CCCC(=O)c2ccc(F)cc2)CC1      no (0)
16                     NCCNC(=O)c1ccc(Cl)cn1      no (0)
17                               N#CCC(=O)NN      no (0)
18          O=C(O)c1ccc(S(=O)(=O)N(Cl)Cl)cc1      no (0)
19                     C=CCN1CCc2nc(N)sc2CC1      no (0)
20       CCOC(=O)c1c(N)sc2c1CCN(Cc1ccccc1)C2     yes (1)
21                       c1ccc(CC2=NCCN2)cc1      no (0)
22                         Cc1c[nH]c2ccccc12      no (0)
23     CN1CCc2cccc3c2[C@H]1Cc1ccc(O)c(O)c1-3     yes (1)
24  CN(CCCN1c2ccccc2CCc2ccccc21)CC(=O)c1ccc(Cl)cc1     yes (1)
25              Cc1cccc(C)c1NC(=O)CN1CCCCCC1      no (0)

The reported measurements were obtained from PubChem BioAssay (NCATS).
